The values you see were collected from patent US6790866B2.

Parameter 'readout' = log10 Ki; parameter 'system' = prostanoid receptor subtype (mouse EP1) (Mus musculus).
Sequence (P35375 whole entry): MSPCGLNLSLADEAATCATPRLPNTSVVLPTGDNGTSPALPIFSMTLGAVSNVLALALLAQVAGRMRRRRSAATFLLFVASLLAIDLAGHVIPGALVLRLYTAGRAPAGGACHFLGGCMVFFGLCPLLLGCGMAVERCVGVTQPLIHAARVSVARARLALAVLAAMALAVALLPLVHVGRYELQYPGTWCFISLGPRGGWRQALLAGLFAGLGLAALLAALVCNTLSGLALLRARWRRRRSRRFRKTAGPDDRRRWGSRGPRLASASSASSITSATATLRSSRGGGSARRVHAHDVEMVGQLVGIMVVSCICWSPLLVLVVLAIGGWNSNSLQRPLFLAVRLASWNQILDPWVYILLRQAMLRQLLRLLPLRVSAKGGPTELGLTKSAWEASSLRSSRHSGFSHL
Heads up: the numbers are on a log10 scale; they represent Ki in nM.

CCN(c1ccc(C(F)(F)F)cc1OCc1ccc(/C=C/C(=O)O)cc1)S(=O)(=O)c1ccccc1	-0.70
CC(C)N(c1ccc(C(F)(F)F)cc1N(C)Cc1ccc(C(=O)O)cc1)S(=O)(=O)c1ccccc1	1.86

Problem: Fill blank: measured log10 Ki of the compound `O=C(O)c1ccc(COc2cc(Cl)ccc2CNS(=O)(=O)c2ccccc2)cc1` is ____.
Solution: 2.58

Problem: Fill blank: measured log10 Ki of the compound `O=C(O)c1ccc(COc2ncc(C(F)(F)F)cc2NS(=O)(=O)c2ccccc2)cc1` is ____.
Solution: 2.20

Problem: Fill blank: measured log10 Ki of the compound `O=C(O)c1ccc(NC(=O)c2cc(Br)ccc2NS(=O)(=O)c2ccc(Cl)cc2)cc1` is ____.
Solution: 2.00

Problem: Fill blank: measured log10 Ki of the compound `CC(C)N(c1ccc(C(F)(F)F)cc1OCc1ccc(OCC(=O)O)cc1)S(=O)(=O)c1ccccc1` is ____.
Solution: 0.76
